SUBJECT_OF_TEST: CFTR (Homo sapiens)
TEST_DESCRIPTION: Membrane potential dye, Enteroid Assay A
Type: cell-based
EXPERIMENTAL_CONTEXT: Table 7; human enteroid cells, 18-24 hours; acute 10 μM forskolin and 300 nM ivacaftor; read-out: Ent. A EC50
pEC50: −log10 of the molar value.
Listing: pEC50 of selected compounds
MEASURED_ATTRIBUTE: pEC50

Cc1cccc(C)c1-c1cc2nc(n1)NS(=O)(=O)c1cccc(c1)C(=O)N(CCC(C)(C)C)[C@H](CC(F)(F)F)CO2 [Compound 984]	5.52 to 6.00
CNC(=O)c1ccc(CN2C(=O)c3cccc(c3)S(=O)(=O)Nc3nc(cc(-c4c(C)cccc4C)n3)OC[C@H]2CC(C)C)cn1	> 6.00
Cc1cccc(C)c1-c1cc2nc(n1)NS(=O)(=O)c1cccc(c1)C(=O)N(Cc1ccc(C(=O)N(C)C)nc1)[C@H](CC(C)C)CO2	> 6.00
Cc1cccc(C)c1-c1cc2nc(n1)NS(=O)(=O)c1cccc(c1)C(=O)N(Cc1ccc(N3CCC(C#N)CC3)nc1)[C@H](CC(C)C)CO2	> 6.00
CCN(CCO)c1ccc(CN2C(=O)c3cccc(c3)S(=O)(=O)Nc3nc(cc(-c4c(C)cccc4C)n3)OC[C@H]2CC(C)C)cn1	> 6.00
Cc1cccc(C)c1-c1cc2nc(n1)NS(=O)(=O)c1cccc(c1)CN(Cc1ccc(Oc3ccccc3)cc1)[C@H](CC(C)C)CO2	> 6.00

----------
SUBJECT_OF_TEST: F508del (Homo sapiens, UniProt P13569, DEL508-508)
Construct: expressed in transfected cells
Sequence (P13569 with tags, fused parts or gaps DEL508-508): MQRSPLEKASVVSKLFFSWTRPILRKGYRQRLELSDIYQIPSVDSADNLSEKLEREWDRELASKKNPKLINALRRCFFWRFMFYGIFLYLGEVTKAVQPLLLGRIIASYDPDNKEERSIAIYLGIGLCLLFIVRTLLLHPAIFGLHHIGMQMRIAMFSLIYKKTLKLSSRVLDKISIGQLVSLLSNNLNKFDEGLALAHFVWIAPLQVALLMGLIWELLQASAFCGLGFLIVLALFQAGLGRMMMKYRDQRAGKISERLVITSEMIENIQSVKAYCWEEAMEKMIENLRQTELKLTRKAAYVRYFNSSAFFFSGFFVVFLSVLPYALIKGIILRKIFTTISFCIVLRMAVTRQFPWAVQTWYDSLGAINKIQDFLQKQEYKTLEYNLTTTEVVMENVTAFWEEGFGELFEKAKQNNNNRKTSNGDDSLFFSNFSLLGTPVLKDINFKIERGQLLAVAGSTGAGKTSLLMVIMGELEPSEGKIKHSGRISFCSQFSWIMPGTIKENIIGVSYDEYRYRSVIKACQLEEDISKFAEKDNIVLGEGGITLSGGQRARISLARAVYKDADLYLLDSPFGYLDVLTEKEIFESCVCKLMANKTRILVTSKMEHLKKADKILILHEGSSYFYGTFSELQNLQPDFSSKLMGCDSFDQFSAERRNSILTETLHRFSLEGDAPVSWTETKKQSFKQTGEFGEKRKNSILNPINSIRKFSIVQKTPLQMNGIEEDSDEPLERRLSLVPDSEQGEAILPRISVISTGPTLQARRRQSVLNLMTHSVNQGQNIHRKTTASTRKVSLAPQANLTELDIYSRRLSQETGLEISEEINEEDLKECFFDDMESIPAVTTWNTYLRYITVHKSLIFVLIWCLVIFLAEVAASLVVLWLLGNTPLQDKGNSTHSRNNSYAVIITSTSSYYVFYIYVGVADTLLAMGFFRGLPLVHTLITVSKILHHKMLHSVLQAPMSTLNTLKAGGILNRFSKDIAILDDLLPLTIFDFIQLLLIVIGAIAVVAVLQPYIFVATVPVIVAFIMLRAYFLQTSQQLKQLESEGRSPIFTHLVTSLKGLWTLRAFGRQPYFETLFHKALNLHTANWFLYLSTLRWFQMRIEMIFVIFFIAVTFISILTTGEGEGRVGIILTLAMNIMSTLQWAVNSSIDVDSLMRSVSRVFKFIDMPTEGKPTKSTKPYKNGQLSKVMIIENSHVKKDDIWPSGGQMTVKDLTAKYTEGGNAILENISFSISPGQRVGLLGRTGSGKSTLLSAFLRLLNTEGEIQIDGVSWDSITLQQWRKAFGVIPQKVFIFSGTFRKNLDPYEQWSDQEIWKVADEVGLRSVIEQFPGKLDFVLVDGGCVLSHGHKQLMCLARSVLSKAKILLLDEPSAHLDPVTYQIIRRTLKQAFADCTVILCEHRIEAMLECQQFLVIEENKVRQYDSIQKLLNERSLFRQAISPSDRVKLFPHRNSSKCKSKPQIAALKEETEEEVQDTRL
TEST_DESCRIPTION: 3T3 assay: membrane potential optical assay for F508del correction
Assay type: cell-based
EXPERIMENTAL_CONTEXT: NIH3T3; Table 7; F508del NIH 3T3 cells; compared to lumacaftor in combination with acutely added 300 nM Ivacaftor; read-out: 3T3 Max Activity
MEASURED_ATTRIBUTE: Emax

Cc1cccc(C)c1-c1cc2nc(n1)NS(=O)(=O)c1cccc(c1)C(=O)N(CCC1CCN(C(C)C)CC1)[C@H](CC(C)C)CO2	> 60%
Cc1cccc(C)c1-c1cc2nc(n1)NS(=O)(=O)c1cccc(c1)C(=O)N(C)C[C@@H](c1ccc(C(C)(C)C)cn1)O2 (single isomer, unassigned)	> 60%
Cc1cccc(C)c1-c1cc2nc(n1)NS(=O)(=O)c1cccc(c1)CN(Cc1cccc3c1OC(F)(F)O3)[C@H](CC(C)C)CO2	> 60%

----------
SUBJECT_OF_TEST: CFTR (Homo sapiens, UniProt P13569, DEL508-508)
Construct: endogenous in cells; host or cells: primary human bronchial epithelial cells from CF subjects (F508del/MF-HBE), differentiated at air-liquid interface
Sequence (P13569 with tags, fused parts or gaps DEL508-508): as above
TEST_DESCRIPTION: HBE assay: Ussing chamber assay of CFTR-mediated short-circuit currents
Type: cell-based
EXPERIMENTAL_CONTEXT: HBE assay; read-out: HBE EC50
Procedure: 1. Ussing Chamber Assay of CFTR-Mediated Short-Circuit Currents […] To isolate the CFTR-mediated short-circuit (ISC) current, F508del/MF-HBE grown on Costar® Snapwell™ cell culture inserts were mounted in an Ussing chamber and the transepithelial ISC was measured under voltage-clamp recording conditions (Vhold=0 mV) at 37° C. […] The CFTR-mediated ISC (μA/cm^2) for each condition was determined from the peak forskolin response to the steady-state current following inhibition. […]
Listing: EC50 of selected molecules
MEASURED_ATTRIBUTE: EC50

Cc1cccc(C)c1-c1cc2nc(n1)NS(=O)(=O)c1cccc(c1)C(=O)N(Cc1ncc(N3CC[C@](C)(F)C3)cn1)[C@H](CC(C)(C)C)CO2	< 1000 nM
Cc1cccc(C)c1-c1cc2nc(n1)NS(=O)(=O)c1cccc(c1)C(=O)N(Cc1cccc(NC3CCOCC3)n1)[C@H](CC(C)(C)C)CO2	< 1000 nM
Cc1cccc(C)c1-c1cc2nc(n1)NS(=O)(=O)c1cccc(c1)C(=O)N(Cc1ncc(N3CC(OC(C)C)C3)cn1)[C@H](CC(C)(C)C)CO2	< 1000 nM
COCCOc1cnc(CN2C(=O)c3cccc(c3)S(=O)(=O)Nc3nc(cc(-c4c(C)cccc4C)n3)OC[C@H]2CC(C)(C)C)c(F)c1	< 1000 nM
CC[C@@H](C)Oc1cnc(CN2C(=O)c3cccc(c3)S(=O)(=O)Nc3nc(cc(-c4c(C)cccc4C)n3)OC[C@H]2CC2CC2)nc1	< 1000 nM
Cc1cccc(C)c1-c1cc2nc(n1)NS(=O)(=O)c1cccc(c1)C(=O)N(Cc1cccc(N3CCOCC(C)(C)C3)n1)[C@H](CC(C)(C)C)CO2	< 1000 nM
